Data provenance is paper PMC11588247.

Item-by-item account of FRAP (antioxidant activity ± SD)
Assay: FRAP (ferric ion-reducing antioxidant power) assay
Conditions: 10 μL sample + 190 μL FRAP reagent (acetate pH 3.6, TPTZ, FeCl3), 30 min dark, absorbance 593 nm, ascorbic acid standard; hydrolysate at 100 μg/mL
Method: The ferric ion-reducing antioxidant power assay was analyzed according to the method by Rumpf et al. with minor modifications. […] The absorbance was measured at 593 nm using a microplate reader (Synergy H1 Hybrid Multi-Mode Reader, Biotek, Winusky, VT, USA). […] Results were expressed as micrograms of ascorbic acid equivalent per gram (μg AAE g^−1).
Ends that are not written are not given here.
Measured endpoint: FRAP (antioxidant activity ± SD) (μg AAE g^−1)

* QIILLLLKP [Cur-9] | 1.04
* VHVLLLIL [Cur-10] | 1.04
* VLKKLLPLL [Cur-6] | 1.05
* HAFRDAVTPLE [Cur-12] | 1.04
* KLHLLILI [Cur-1] | 1.05
* PKVKILIL [Cur-4] | 1.08
* PLKLLLPL [Cur-7] | 1.04
* LKKTLLLVNKADLLP [Cur-5] | 1.04
* ARLLLLKP [Cur-8] | 1.05
* LKKPVILL [Cur-11] | 1.05
* VKLKIPLLIL [Cur-3] | 1.04
* PLLLKLIV [Cur-2] | 1.05

---

Item-by-item account of ABTS radical-scavenging activity (antioxidant activity ± SD)
assay: ABTS radical scavenging assay; conditions: 10 μL sample + 190 μL ABTS solution, 5 min dark, absorbance 750 nm, ascorbic acid standard; hydrolysate at 100 μg/mL
Ends that are not written are not given here.
Measured endpoint: ABTS radical-scavenging activity (antioxidant activity ± SD) (μg AAE g^−1)

- HAFRDAVTPLE [Cur-12]: 0.02
- ARLLLLKP [Cur-8]: 0.13
- VHVLLLIL [Cur-10]: 0.30
- KLHLLILI [Cur-1]: 0.22
- QIILLLLKP [Cur-9]: 0.07
- LKKTLLLVNKADLLP [Cur-5]: 0.12
- PLLLKLIV [Cur-2]: 0.13
- LKKPVILL [Cur-11]: 0.17
- PLKLLLPL [Cur-7]: 0.15
- VKLKIPLLIL [Cur-3]: 0.08
- VLKKLLPLL [Cur-6]: 0.09
- PKVKILIL [Cur-4]: 0.15
